# TARGET_UNDER_TEST: human CTPS1 (Homo sapiens)
# Sequence (P17812 1-591): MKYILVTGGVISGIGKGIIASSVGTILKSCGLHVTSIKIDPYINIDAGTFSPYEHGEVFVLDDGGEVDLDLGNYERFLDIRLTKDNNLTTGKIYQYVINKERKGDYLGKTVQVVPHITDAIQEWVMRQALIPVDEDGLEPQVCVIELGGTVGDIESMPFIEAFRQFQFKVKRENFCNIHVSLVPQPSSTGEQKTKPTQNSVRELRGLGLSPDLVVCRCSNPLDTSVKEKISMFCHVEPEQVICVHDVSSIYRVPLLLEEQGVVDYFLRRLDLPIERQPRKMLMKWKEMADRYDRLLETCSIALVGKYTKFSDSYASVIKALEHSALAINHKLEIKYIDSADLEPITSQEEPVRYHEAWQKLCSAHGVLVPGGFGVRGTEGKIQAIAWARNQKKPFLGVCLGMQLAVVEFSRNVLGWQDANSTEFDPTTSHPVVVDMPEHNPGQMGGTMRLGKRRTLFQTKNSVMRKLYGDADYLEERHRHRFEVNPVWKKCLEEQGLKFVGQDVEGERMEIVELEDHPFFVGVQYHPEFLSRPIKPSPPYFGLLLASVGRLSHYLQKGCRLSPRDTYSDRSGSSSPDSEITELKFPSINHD
# ASSAY_NOTES: ADP-Glo assay, human CTPS1 enzyme inhibition
# Format: biochemical
# CONDITION_DESCRIPTION: wild-type human CTPS1, 25 nM enzyme; ADP-Glo; read-out: ADP-Glo_WT_hCTPS1—25 nM_IC50 (IC50)
pIC50: −log10 of the molar value.
Reported values of pIC50 for individual entries

CCOc1cncc(-c2cnc(C(=O)N[C@H](c3cc(NS(=O)(=O)C4CC4)ccn3)[C@H](C)OC)s2)n1 (single isomer, unassigned) = 7.60 to 8.30
CCOc1cncc(-c2cnc(C(=O)N[C@@H](CN3CCCC3)c3cccc(NS(=O)(=O)C(F)F)c3)s2)n1 (single isomer, unassigned) = 7.60 to 8.30
COCC[C@@H](NC(=O)c1ncc(-c2cnn3ccc(Cl)cc23)s1)c1cc(NS(=O)(=O)C2CC2)ccn1 (single isomer, unassigned) = 7.60 to 8.30
C[C@H](O)[C@H](NC(=O)c1ncc(-c2cnn3ccc(Cl)cc23)s1)c1cc(NS(=O)(=O)C2CC2)ccn1 = 7.60 to 8.30

Read the next record carefully.
Lab note: CCOc1cncc(-c2cnc(C(=O)N[C@H](c3cc(NS(=O)(=O)C4CC4)ccn3)[C@@H](C)COC)s2)n1 gave pIC50 of ≥ 8.30

* * *

# TARGET_UNDER_TEST: UniProt P17812
# ASSAY_NOTES: ADP-Glo assay, human CTPS1 enzyme inhibition
# Assay type: biochemical
# CONDITION_DESCRIPTION: wild-type human CTPS1, 25 nM enzyme; ADP-Glo; read-out: ADP-Glo_WT_hCTPS1—25 nM_IC50 (IC50)
METRIC: IC50

Lab note: CCOc1cncc(-c2cnc(C(=O)N[C@H](c3cc(NS(=O)(=O)C4CC4)ccn3)[C@H](C)O)s2)n1 gave IC50 of 5 to 25 nM

Lab note: CCOc1cncc(-c2cnc(C(=O)N[C@@H](Cn3nccn3)c3cccc(NS(=O)(=O)C(F)F)c3)s2)n1 gave IC50 of 5 to 25 nM

Lab note: CCOc1cncc(-c2cnc(C(=O)N[C@H](c3cc(NS(=O)(=O)C4CC4)ccn3)[C@H]3COCCO3)s2)n1 gave IC50 of 5 to 25 nM

Lab note: O=C(N[C@@H](CN1CCOCC1)c1cc(NS(=O)(=O)C2CC2)ccn1)c1ncc(-c2cnn3ccc(Cl)cc23)s1 gave IC50 of 5 to 25 nM

Lab note: CCOc1cncc(-c2cnc(C(=O)N[C@H](c3cccc(NS(=O)(=O)C(F)F)c3)[C@@H]3CCOC3)s2)n1 gave IC50 of 5 to 25 nM

Lab note: CCOc1cncc(-c2cnc(C(=O)N[C@@H](c3cc(NS(=O)(=O)C4CC4)ccn3)[C@H]3C[C@H]4CC[C@@H]3O4)s2)n1 gave IC50 of ≤ 5 nM

The measured values listed here are drawn from patent US20250270200A1.
